- reported.conditions: in 2-ethoxyethanol, 298.15 K
measurement.label: solubility (mole fraction)

1) CC1(N=C(O)c2ccccc2)CCC2CC1C(c1ccccc1)=[NH+]C2(C)C.[O-][Cl+3]([O-])([O-])[O-] (configuration not stated) = 0.00256
2) CC(=O)NC1(C)CCC2CC1C(C)=NC2(C)C (configuration not stated) = 0.00185

* * *

- reported.conditions: in n-butanol, 313.15 K
measurement.label: solubility (mole fraction)

1. CC(=O)NC1(C)CCC2CC1C(C)=NC2(C)C (configuration not stated) = 0.00219
2. CC1(N=C(O)c2ccccc2)CCC2CC1C(c1ccccc1)=[NH+]C2(C)C.[O-][Cl+3]([O-])([O-])[O-] (configuration not stated) = 0.00178

* * *

solubility (mole fraction) listing for selected compounds.
- reported.conditions: in propylene glycol, 308.15 K
measurement.label: solubility (mole fraction)

1) CC(=O)NC1(C)CCC2CC1C(C)=NC2(C)C (configuration not stated) = 0.022
2) CC1(N=C(O)c2ccccc2)CCC2CC1C(c1ccccc1)=[NH+]C2(C)C.[O-][Cl+3]([O-])([O-])[O-] (configuration not stated) = 0.0147

* * *

solubility (mole fraction) listing for selected compounds.
- reported.conditions: in acetonitrile, 303.15 K
measurement.label: solubility (mole fraction)

1) CC1(N=C(O)c2ccccc2)CCC2CC1C(c1ccccc1)=[NH+]C2(C)C.[O-][Cl+3]([O-])([O-])[O-] (configuration not stated) = 0.0035
2) CC(=O)NC1(C)CCC2CC1C(C)=NC2(C)C (configuration not stated) = 0.0265

* * *

- reported.conditions: in acetone, 313.15 K
measurement.label: solubility (mole fraction)

1. CC(=O)NC1(C)CCC2CC1C(C)=NC2(C)C (configuration not stated) = 0.00445
2. CC1(N=C(O)c2ccccc2)CCC2CC1C(c1ccccc1)=[NH+]C2(C)C.[O-][Cl+3]([O-])([O-])[O-] (configuration not stated) = 0.00425

* * *

- reported.conditions: in n-butanol, 318.15 K
measurement.label: solubility (mole fraction)

1. CC1(N=C(O)c2ccccc2)CCC2CC1C(c1ccccc1)=[NH+]C2(C)C.[O-][Cl+3]([O-])([O-])[O-] (configuration not stated) = 0.00221
2. CC(=O)NC1(C)CCC2CC1C(C)=NC2(C)C (configuration not stated) = 0.00257

* * *

- reported.conditions: in n-butanol, 308.15 K
measurement.label: solubility (mole fraction)

1. CC1(N=C(O)c2ccccc2)CCC2CC1C(c1ccccc1)=[NH+]C2(C)C.[O-][Cl+3]([O-])([O-])[O-] (configuration not stated) = 0.00146
2. CC(=O)NC1(C)CCC2CC1C(C)=NC2(C)C (configuration not stated) = 0.00191

* * *

- reported.conditions: in methanol, 303.15 K
measurement.label: solubility (mole fraction)

1) CC(=O)NC1(C)CCC2CC1C(C)=NC2(C)C (configuration not stated) = 0.0103
2) CC1(N=C(O)c2ccccc2)CCC2CC1C(c1ccccc1)=[NH+]C2(C)C.[O-][Cl+3]([O-])([O-])[O-] (configuration not stated) = 0.00327

* * *

solubility (mole fraction) listing for selected compounds.
- reported.conditions: in acetone, 318.15 K
measurement.label: solubility (mole fraction)

1) CC1(N=C(O)c2ccccc2)CCC2CC1C(c1ccccc1)=[NH+]C2(C)C.[O-][Cl+3]([O-])([O-])[O-] (configuration not stated) = 0.00495
2) CC(=O)NC1(C)CCC2CC1C(C)=NC2(C)C (configuration not stated) = 0.00493
